TARGET_OR_SYSTEM: kynurenine-3-hydroxylase (Rattus norvegicus, UniProt O88867)
Sequence (O88867 whole entry): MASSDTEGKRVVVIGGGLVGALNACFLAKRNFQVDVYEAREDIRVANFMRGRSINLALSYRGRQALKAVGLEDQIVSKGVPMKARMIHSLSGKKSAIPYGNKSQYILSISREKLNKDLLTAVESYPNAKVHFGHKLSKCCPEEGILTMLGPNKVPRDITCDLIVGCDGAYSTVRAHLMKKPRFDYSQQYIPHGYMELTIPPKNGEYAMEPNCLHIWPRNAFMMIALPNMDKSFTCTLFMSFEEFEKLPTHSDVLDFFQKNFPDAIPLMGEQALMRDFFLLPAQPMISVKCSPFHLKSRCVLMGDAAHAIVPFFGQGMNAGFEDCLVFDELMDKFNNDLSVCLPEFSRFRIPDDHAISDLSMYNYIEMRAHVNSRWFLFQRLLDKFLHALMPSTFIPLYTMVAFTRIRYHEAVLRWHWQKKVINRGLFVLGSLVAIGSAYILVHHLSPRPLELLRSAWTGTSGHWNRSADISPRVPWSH
EXPERIMENT_NOTES: Kynurenine-3-hydroxylase Assay in the Rat Liver
Type: biochemical
Design: Rat liver mitochondrial extract was used as enzymatic preparation for this assay; from tissue; host or cells: rat liver mitochondrial extract
EXPERIMENTAL_PARAMETERS: rat liver mitochondrial extract, 0.025 mM L-kynurenine, 37° C., 30 min, pH 8.1; read-out: Enzyme Inhibition (Liver) IC50
READOUT_TYPE: IC50 (µM)

P: CCOC(=O)/C(O)=C\C(=O)c1ccc(Cl)c(Cl)c1
Q: O=C(O)/C(O)=C\C(=O)c1cccc(F)c1
R: O=C(O)/C=C/C(=O)c1ccc(Cl)c(Cl)c1
S: COC(=O)/C(O)=C\C(=O)c1ccc(Cl)c(Cl)c1
T: CC(=CC(=O)O)C(=O)c1ccc(Cl)c(Cl)c1
[in] Sort the molecules on IC50; start with the lowest figure. Thanks in advance for listing the labels in the requested order.
[out] P, Q, S, R, T

----------
TARGET_OR_SYSTEM: kynurenine-3-hydroxylase (Rattus norvegicus)
EXPERIMENT_NOTES: Kynurenine-3-hydroxylase Assay in the Rat Liver
Type: biochemical
Design: Rat liver mitochondrial extract was used as enzymatic preparation for this assay; from tissue; host or cells: rat liver mitochondrial extract
EXPERIMENTAL_PARAMETERS: rat liver mitochondrial extract, 0.025 mM L-kynurenine, 37° C., 30 min, pH 8.1; read-out: Enzyme Inhibition (Liver) IC50
READOUT_TYPE: IC50 (µM)

O=C(O)/C=C/C(=O)c1cccc([N+](=O)[O-])c1 [PNU 158389] ... 30.4
O=C(O)/C=C/C(=O)c1cccc(F)c1 [PNU 158388] ... 38.6

a: O=C(O)/C(O)=C\C(=O)c1ccc(Cl)c(Cl)c1 [PNU 158776]
b: C/C(=C\C(=O)c1ccc(Cl)c(Cl)c1)C(=O)O [PNU 158785]
[in] Pick one, a or b : lowest reported IC50. State your choice using its label.
[out] a

P: O=C(O)/C(O)=C\C(=O)c1ccc(F)c(F)c1 [PNU 161219]
Q: O=C(O)/C(O)=C\C(=O)c1ccc(Cl)cc1 [PNU 166909]
R: O=C(O)/C=C/C(=O)c1ccc(F)c(F)c1 [PNU 157961]
[in] Sort by IC50, descending. Thanks in advance for listing the labels in the requested order.
[out] R, Q, P
(R: 21.1 µM, Q: 8.9 µM, P: 1.2 µM)

----------
TARGET_OR_SYSTEM: kynurenine-3-hydroxylase (Rattus norvegicus, UniProt O88867)
EXPERIMENT_NOTES: Kynurenine-3-hydroxylase Assay in the Rat Liver
Assay type: biochemical
Parameters: Rat liver mitochondrial extract was used as enzymatic preparation for this assay; from tissue; host or cells: rat liver mitochondrial extract
EXPERIMENTAL_PARAMETERS: rat liver mitochondrial extract, 0.025 mM L-kynurenine, 37° C., 30 min, pH 8.1; read-out: Enzyme Inhibition (Liver) IC50
pIC50: −log10 of the molar value.
READOUT_TYPE: pIC50

P: O=C(O)C=C(Cc1ccccc1)C(=O)c1ccc(Cl)c(Cl)c1 [PNU 167535]
Q: O=C(O)/C=C/C(=O)c1cccc(Cl)c1 [PNU 158390]
[in] Pick one, P or Q : lowest reported pIC50. State your choice using its label.
[out] Q
(Q: 4.66, P: 4.91)
